Readings of pIC50 for the listed compounds
Target: UniProt:O43614
Assay: Orexin antagonist activity, intracellular calcium FLIPR assay (orexin receptor 2)
Assay type: cell-based
Conditions: RBL-2H3 cells stably expressing human orexin receptor 2; Ca2+ dye FLIPR; compound 15 minutes before orexin-A at approximately 80% maximal response; read-out: Human Orexin2R IC50
pIC50: −log10 of the molar value.

Use the examples below as a reference point.
{"compound": "O=C(N[C@H]1CCC[C@@H]1Nc1nc2ccccc2o1)c1ccccc1-n1nccn1 [Example 86]", "pIC50": "< 5.00"}
{"compound": "O=C(N[C@H]1CCC[C@@H]1Nc1nc2c(Cl)cncc2s1)c1ccccc1-n1nccn1 [Example 96]", "pIC50": "< 5.00"}

Okay, next one:
Enquiry: Read the entry O=C(N[C@H]1CCC[C@@H]1Nc1nc2ccc(F)cc2s1)c1ccccc1-n1ccnc1 [Example 43] and write its reported pIC50.
Return: < 5.00

---

Molecular target: human orexin receptor 1 (Homo sapiens (Human))
Experiment: Orexin antagonist activity, intracellular calcium FLIPR assay (orexin receptor 1)
Details: RBL-2H3 cells stably expressing human orexin receptor 1; Ca2+ dye FLIPR; compound 15 minutes before orexin-A at approximately 80% maximal response; read-out: Human Orexin1R IC50
reported_endpoint: IC50
Returns: string containing the numeric result and its unit.

Use the examples below as a reference point.
{"input_smiles": "COc1cccc(OC)c1C(=O)N[C@@H]1CCC[C@@H]1Nc1nc2ccc(Cl)cc2s1", "IC50": "580 nM"}
{"input_smiles": "COc1ccc(F)cc1C(=O)N[C@H]1CCC[C@@H]1Nc1nc2ccc(F)cc2s1", "IC50": "280 nM"}
{"input_smiles": "Cc1cccc(C(=O)N[C@H]2CCC[C@@H]2Nc2nc3ccc(F)cc3s2)c1", "IC50": "780 nM"}

Okay, next one:
Enquiry: Read the entry `CN(C(=O)c1ccccc1Cl)[C@H]1CCC[C@@H]1Nc1nc2ccc(F)cc2s1` and write its reported IC50.
Return: 20 nM

---

Readings of pIC50 for the listed compounds
Target: human orexin receptor 2 (Homo sapiens (Human), UniProt O43614)
Sequence (O43614 whole entry): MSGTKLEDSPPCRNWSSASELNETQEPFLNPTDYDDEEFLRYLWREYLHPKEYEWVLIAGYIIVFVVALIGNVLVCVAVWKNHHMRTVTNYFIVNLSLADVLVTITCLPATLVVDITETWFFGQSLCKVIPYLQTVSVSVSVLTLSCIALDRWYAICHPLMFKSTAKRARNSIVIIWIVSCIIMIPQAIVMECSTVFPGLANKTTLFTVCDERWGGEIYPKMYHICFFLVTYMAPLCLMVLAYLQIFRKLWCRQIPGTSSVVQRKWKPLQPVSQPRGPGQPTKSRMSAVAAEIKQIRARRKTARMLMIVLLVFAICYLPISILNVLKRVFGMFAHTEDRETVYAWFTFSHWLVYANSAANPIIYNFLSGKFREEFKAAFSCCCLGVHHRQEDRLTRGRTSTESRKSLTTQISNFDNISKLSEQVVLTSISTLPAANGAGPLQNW
Experiment: Orexin antagonist activity, intracellular calcium FLIPR assay (orexin receptor 2)
Conditions: RBL-2H3 cells stably expressing human orexin receptor 2; Ca2+ dye FLIPR; compound 15 minutes before orexin-A at approximately 80% maximal response; read-out: Human Orexin2R IC50
pIC50: −log10 of the molar value.

{"compound": "Cc1ccc(-n2nccn2)c(C(=O)NC2CCCC2Cc2ccc3ccccc3n2)c1 (single isomer, unassigned) [Example 61]", "pIC50": "< 5.00"}

Enquiry: Read the entry Cc1nnc(-c2ccccc2C(=O)N[C@H]2CCC[C@@H]2Nc2nc3ccc(F)cc3s2)o1 [Example 72] and write its reported pIC50.
Return: < 5.00

Enquiry: Read the entry O=C(NC1CC(F)(F)CC1Nc1nc2ccc(Cl)cc2s1)c1ccccc1-n1nccn1 (single isomer, unassigned) [Example 106] and write its reported pIC50.
Return: 6.36

Enquiry: Read the entry O=C(NC1COCC1Nc1nc2ccc(F)cc2s1)c1ccccc1-n1nccn1 (single isomer, unassigned) [Example 100] and write its reported pIC50.
Return: < 5.00

Enquiry: Read the entry O=C(N[C@H]1CCC[C@@H]1Nc1nc2ccc(F)cc2s1)c1c(F)cccc1F [Example 47] and write its reported pIC50.
Return: < 5.00

---

Target: human orexin receptor 2 (Homo sapiens (Human))
Assay: Orexin antagonist activity, intracellular calcium FLIPR assay (orexin receptor 2)
Conditions: RBL-2H3 cells stably expressing human orexin receptor 2; Ca2+ dye FLIPR; compound 15 minutes before orexin-A at approximately 80% maximal response; read-out: Human Orexin2R IC50
Procedure: Orexin antagonist activity was determined by measuring changes in intracellular calcium levels using a Ca^2+ sensitive fluorescent dye. […] The IC50 values were determined from ten point concentration response curves. […]
reported_endpoint: log10 of IC50 (log10 of the value in µM)
// units: µM (pre-log); metric: IC50; scale: log10

Use the examples below as a reference point.
{"compound": "CCOc1cccc(OCC)c1C(=O)N[C@H]1CCC[C@H]1Nc1nc2ccccc2o1", "log10 of IC50": -0.34}
{"compound": "O=C(N[C@H]1CCC[C@@H]1Nc1nc2ccc(F)cc2s1)c1cc(F)ccc1-n1nccn1", "log10 of IC50": 0.73}
{"compound": "COc1cccc(OC)c1C(=O)N[C@@H]1CCC[C@@H]1Nc1nc2ccc(Cl)cc2s1", "log10 of IC50": 0.72}
{"compound": "CCOc1ccc(C)cc1C(=O)NC1CCCC1Cc1ccc2ccccc2n1 (centres unmarked) [Example 31]", "log10 of IC50": 0.52}
{"compound": "CCOc1cccc(OCC)c1C(=O)NC1CCCC1Cc1ccc2ccccc2n1 (centres unmarked)", "log10 of IC50": -0.43}

Enquiry: Read the entry `COc1ccccc1C(=O)N(C)[C@H]1CCC[C@@H]1Nc1nc2ccc(F)cc2s1` and write its reported log10 of IC50.
Return: 0.20

Enquiry: Read the entry `COc1ccc(C)cc1C(=O)N[C@H]1CCC[C@@H]1Nc1nc2ccc(F)cc2s1` and write its reported log10 of IC50.
Return: 0.81

Enquiry: Read the entry Cc1ccccc1C(=O)NC1CCC[C@@H]1Nc1nc2ccc(F)cc2s1 (stereo in doubt) and write its reported log10 of IC50.
Return: 0.60

Enquiry: Read the entry CC1(Nc2nc3ccc(Cl)cc3s2)CCCC1NC(=O)c1ccccc1-n1nccn1 (centres unmarked) and write its reported log10 of IC50.
Return: -0.73

Enquiry: Read the entry `COc1cccc(OC)c1C(=O)N(C)[C@H]1CCC[C@@H]1Nc1nc2ccc(F)cc2s1` and write its reported log10 of IC50.
Return: 0.04

Enquiry: Read the entry `O=C(N[C@H]1CCC[C@@H]1Nc1nc2cc(Cl)ccc2s1)c1ccccc1-n1nccn1` and write its reported log10 of IC50.
Return: 0.73

---

Biological target: UniProt O43614
Experiment: Orexin antagonist activity, intracellular calcium FLIPR assay (orexin receptor 2)
Type: cell-based
Conditions: RBL-2H3 cells stably expressing human orexin receptor 2; Ca2+ dye FLIPR; compound 15 minutes before orexin-A at approximately 80% maximal response; read-out: Human Orexin2R IC50
Method: Orexin antagonist activity was determined by measuring changes in intracellular calcium levels using a Ca^2+ sensitive fluorescent dye. […] The IC50 values were determined from ten point concentration response curves. […]
Readings of IC50 for the listed compounds
Numbers only; they are read as µM.

Use the examples below as a reference point.
{"compound": "O=C(N[C@H]1CCC[C@@H]1Nc1nc2ccc(Cl)cc2s1)c1ccccc1-n1nccn1 [Example 91]", "reported_endpoint": "IC50", "val": 4.7}
{"compound": "O=C(N[C@H]1CCC[C@@H]1Nc1nc2ccc(F)cc2s1)c1ccccc1-c1ncccn1 [Example 40]", "reported_endpoint": "IC50", "val": 3.3}
{"compound": "COc1cccc(OC)c1C(=O)N[C@@H]1CCC[C@H]1Nc1nc2ccccc2s1 [Example 11]", "reported_endpoint": "IC50", "val": 1.8}

Enquiry: Read the entry Cc1ccc(-n2nccn2)c(C(=O)NC2CCCC2Cc2cnc3ccccc3n2)c1 (stereo not shown) [Example 63] and write its reported IC50.
Return: 4.2

Enquiry: Read the entry Cc1noc(-c2ccccc2C(=O)N(C)[C@H]2CCC[C@@H]2Nc2nc3ccc(F)cc3s2)n1 [Example 83] and write its reported IC50.
Return: 1.2

Enquiry: Read the entry Cc1ccc(-n2nccn2)c(C(=O)N[C@H]2CCC[C@@H]2Nc2nc3ccccc3s2)c1 [Example 19] and write its reported IC50.
Return: 7.3

---

Readings of IC50 for the listed compounds
Target: human orexin receptor 1 (Homo sapiens (Human), UniProt O43613)
Sequence (O43613 whole entry): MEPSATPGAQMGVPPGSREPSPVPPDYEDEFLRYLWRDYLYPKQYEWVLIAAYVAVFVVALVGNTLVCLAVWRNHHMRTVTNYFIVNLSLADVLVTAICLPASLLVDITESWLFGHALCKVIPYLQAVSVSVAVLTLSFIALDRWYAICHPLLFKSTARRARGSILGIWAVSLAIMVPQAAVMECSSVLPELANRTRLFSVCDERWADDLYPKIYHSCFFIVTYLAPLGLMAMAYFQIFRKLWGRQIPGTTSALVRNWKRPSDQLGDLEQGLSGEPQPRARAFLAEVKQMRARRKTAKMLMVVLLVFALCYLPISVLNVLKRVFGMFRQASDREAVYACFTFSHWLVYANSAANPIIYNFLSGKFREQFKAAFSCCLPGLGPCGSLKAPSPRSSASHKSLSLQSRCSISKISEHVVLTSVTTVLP
Assay: Orexin antagonist activity, intracellular calcium FLIPR assay (orexin receptor 1)
Details: RBL-2H3 cells stably expressing human orexin receptor 1; Ca2+ dye FLIPR; compound 15 minutes before orexin-A at approximately 80% maximal response; read-out: Human Orexin1R IC50
Numbers only; they are read as nM.

Use the examples below as a reference point.
{"compound": "O=C(N[C@H]1CCC[C@@H]1Nc1nc2c(F)cccc2s1)c1ccccc1-n1nccn1 [Example 94]", "IC50 (nM)": 30}
{"compound": "COc1cccc(OC)c1C(=O)N[C@H]1CCC[C@H]1Nc1cnc2ccccc2n1 [Example 1]", "IC50 (nM)": 0.84}
{"compound": "COc1cccc(OC)c1C(=O)N[C@H]1CCC[C@@H]1Nc1nc2ccc(F)cc2o1 [Example 66]", "IC50 (nM)": 50}

Okay, next one:
Enquiry: Report measured IC50 on human orexin receptor 1 (Homo sapiens (Human), UniProt O43613); entry: CCOc1cccc(OCC)c1C(=O)NC1CCCC1Cc1ccc2ccccc2n1 (stereo not shown) [Example 30]
Return: 320

---

Biological target: human orexin receptor 1 (Homo sapiens (Human), UniProt O43613)
Experiment: Orexin antagonist activity, intracellular calcium FLIPR assay (orexin receptor 1)
Details: RBL-2H3 cells stably expressing human orexin receptor 1; Ca2+ dye FLIPR; compound 15 minutes before orexin-A at approximately 80% maximal response; read-out: Human Orexin1R IC50
pIC50: −log10 of the molar value.
Lab note: anything with pIC50 at or over 7 counts as Criterion met; the rest go in Criterion not met.

The following molecules have reported results that may help.
{"molecule": "COc1cccc(OC)c1C(=O)N[C@@H]1CCC[C@H]1Nc1nc2ccc(Cl)cc2s1 [Example 14]", "label_value": "Criterion not met"}
{"molecule": "COc1cccc(OC)c1C(=O)NC1C[C@@H](O)CC1Nc1nc2ccc(Cl)cc2s1 (stereo in doubt) [Example 25]", "label_value": "Criterion not met"}
{"molecule": "O=C(N[C@H]1CCC[C@@H]1Nc1nc2ccc(F)cc2s1)c1ccccc1-n1cncn1 [Example 44]", "label_value": "Criterion met"}

Enquiry: Assess whether reported pIC50 for COc1cccc(OC)c1C(=O)N[C@@H]1CCC[C@H]1Nc1nc2ccccc2o1 [Example 12] sits at 7 or higher.
Return: Criterion not met

Enquiry: Assess whether reported pIC50 for COc1cccc(OC)c1C(=O)NC1CCCC1Cc1ccc2ccccc2n1 (centres unmarked) [Example 98] sits at 7 or higher.
Return: Criterion not met

Enquiry: Assess whether reported pIC50 for COc1cccc(OC)c1C(=O)N(C)[C@H]1CCC[C@@H]1Nc1nc2ccc(F)cc2s1 [Example 34] sits at 7 or higher.
Return: Criterion met

Enquiry: Assess whether reported pIC50 for COc1cccc(OC)c1C(=O)N[C@@H]1COC[C@H]1Nc1nc2ccc(F)cc2s1 (relative stereo) [Example 65] sits at 7 or higher.
Return: Criterion met
